system-under-test: neuraminidase of B/Lee/40 (purified whole virus) (influenza B virus B/Lee/40, UniProt P03474 1-466)
Sequence (P03474 whole entry): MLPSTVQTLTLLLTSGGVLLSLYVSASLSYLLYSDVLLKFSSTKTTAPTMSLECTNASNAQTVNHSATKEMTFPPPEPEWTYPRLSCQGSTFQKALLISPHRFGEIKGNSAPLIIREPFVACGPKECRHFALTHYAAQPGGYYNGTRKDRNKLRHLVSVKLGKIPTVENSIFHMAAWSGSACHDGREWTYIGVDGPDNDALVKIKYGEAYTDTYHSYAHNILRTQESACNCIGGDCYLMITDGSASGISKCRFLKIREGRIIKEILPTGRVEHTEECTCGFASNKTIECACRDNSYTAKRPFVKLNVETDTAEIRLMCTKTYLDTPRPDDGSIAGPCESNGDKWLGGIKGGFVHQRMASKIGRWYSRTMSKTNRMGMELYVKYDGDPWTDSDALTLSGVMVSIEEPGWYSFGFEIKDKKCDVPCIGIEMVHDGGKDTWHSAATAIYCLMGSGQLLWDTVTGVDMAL
test-summary: ELISA on purified whole virus
measured-parameter: binding result

3G1 antibody (murine IgG2a, hybridoma-produced) (antibody, V domains shown, also called mAb 3G1) VH: QVQLQQSGAELMKPGASVKISCKATGYKFTSYWIGWVKQRPGHGLEWCGEIFPGSGSINYNEKFKGKATFTADTSSNTAYLQLTSLTSEDSAVYYCARGEDYYGSSYGAMDYWGQGTSLTVSS VL: DVQITQSPSYLAASPGETITINCRASKSISKYVAWYQEKPGRTNKVLIYSGSILSFGNPSRFSGSGSGTDFTLTISSLEPEDFAMYYCQQHNEYPWTFGGGTKLEIK | binds
